- Test system: HOP-62 multicell spheroids with HUVEC/MSC, viability
- assay name: Anticancer human tumor HOP-62 cell line growth inhibition [KRAS2];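 further: viability read after a week of compound exposure; 100% = DMSO vehicle-treated spheroids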
- assay conditions: second compound 3.16 µM; first compound 0.316 µM; stronger effect = lower value
- Excerpt: Multicellular complex tumor spheroid response to RAS pathway inhibitors in combination with a targeted agents in patient-derived cell lines with oncogenic KRAS variants from multiple cancer types A high-throughput screen of multi-cell type tumor spheroids was designed to identify active combinations of targeted small molecules and KRAS pathway inhibitors. […] Compounds. […] If the clinical Cmax for an agent had not been determined, the highest concentration tested was 10 microM. […]
As shown below, each of these molecules has a reported viability, T/C value.

See these solved cases before continuing.
molecule: COc1cc(Nc2ncc3c(n2)-c2ccc(Cl)cc2C(c2c(F)cccc2OC)=NC3)ccc1C(=O)O + C=CC(=O)N1CCN(c2nc(OCC3CCCN3C)nc3c2CCN(c2cccc4cccc(C)c24)C3)CC1CC#N
viability, T/C: 4.55%
--
molecule: O=C(c1cc(Cc2n[nH]c(=O)c3ccccc23)ccc1F)N1CCN(C(=O)C2CC2)CC1 + C=CC(=O)N1CCN(c2nc(OCC3CCCN3C)nc3c2CCN(c2cccc4cccc(C)c24)C3)CC1CC#N
viability, T/C: 36.4%

IN: Param readout = viability, T/C; param system = HOP-62 multicell spheroids with HUVEC/MSC, viability; param query = Cn1nccc1Nc1nccc(-c2cc3c(s2)C(C)(C)N(CCN2CCOCC2)C3=O)n1 + C=CC(=O)N1CCN(c2nc(OCC3CCCN3C)nc3c2CCN(c2cccc4cccc(C)c24)C3)CC1CC#N ; response: value
OUT: 1.84%

These data points were gathered from PubChem BioAssay AID1963858.
